target_system: UniProtKB P00750
Sequence (P00750 36-562): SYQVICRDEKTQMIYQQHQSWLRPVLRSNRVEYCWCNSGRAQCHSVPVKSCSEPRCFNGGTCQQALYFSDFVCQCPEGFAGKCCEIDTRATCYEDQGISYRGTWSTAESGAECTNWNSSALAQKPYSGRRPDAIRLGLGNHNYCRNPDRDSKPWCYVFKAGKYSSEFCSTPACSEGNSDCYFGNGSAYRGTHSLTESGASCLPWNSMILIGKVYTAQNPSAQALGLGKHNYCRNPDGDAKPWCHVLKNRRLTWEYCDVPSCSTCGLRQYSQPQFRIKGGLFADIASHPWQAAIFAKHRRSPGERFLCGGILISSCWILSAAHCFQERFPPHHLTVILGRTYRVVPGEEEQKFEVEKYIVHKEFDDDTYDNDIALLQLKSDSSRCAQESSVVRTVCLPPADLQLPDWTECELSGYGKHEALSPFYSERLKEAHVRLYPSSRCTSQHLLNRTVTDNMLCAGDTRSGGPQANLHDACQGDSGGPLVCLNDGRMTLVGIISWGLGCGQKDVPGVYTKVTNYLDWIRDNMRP
method_summary: biochemical
run_parameters: read-out: Kass t-PA (converted)
Counter-ions that a name gives are not always drawn.
Please use class 1 for Kd under 40 µM and class 0 for everything else, ties included.

A selection of reference data follows.
Challenge: In the record for N=C(N)c1ccc(CNC(=O)[C@@H]2C[C@@H]3CCCC[C@@H]3N2C(=O)[C@H]2CCCCN2)cc1 [Example 20, D-hPro-Ohi-p-NHCH2C6H4C(NH)NH2·3HCl] , is Kd less than 40 µM?
Response given: class 0

Challenge: In the record for `N=C(N)c1cccc(CCCNC(=O)[C@@H]2CCCN2C(=O)[C@@H]2NCC[C@@H]3CCCC[C@@H]32)c1` , is Kd less than 40 µM?
Response given: class 0

Challenge: In the record for `N=C(N)c1ccc(CNC(=O)[C@@H]2C[C@H](Oc3ccccc3)CN2C(=O)[C@H]2CCCCN2)cc1` , is Kd less than 40 µM?
Response given: class 0

Challenge: In the record for CCOC(=O)N[C@H](Cc1ccccc1)C(=O)N1CCC[C@H]1C(=O)NCCCCNC(=N)N [Example 3, EtOCO-D-Phe-Pro-Agm·HCl] , is Kd less than 40 µM?
Response given: class 1

Challenge: In the record for `CCS(=O)(=O)N[C@H](Cc1ccccc1)C(=O)N1CCC[C@H]1C(=O)NCc1ccc(C(=N)N)cc1` , is Kd less than 40 µM?
Response given: class 1

Challenge: In the record for CCS(=O)(=O)N[C@H](CC1CCCCC1)C(=O)N1CCC[C@H]1C(=O)NCCCCNC(=N)N [Example 2, EtSO2-D-Cha-Pro-Agm·HCl] , is Kd less than 40 µM?
Response given: class 0

Shifting focus to the compound that follows.
Challenge: In the record for `CCS(=O)(=O)N[C@H](Cc1ccccc1)C(=O)N1CCC[C@H]1C(=O)NCCCc1cccc(C(=N)N)c1` , is Kd less than 40 µM?
Response given: class 0

---

target_system: Plasmin (Homo sapiens, UniProt P00747)
Construct: Human plasmin is purchased; purchased Boehringer Mannheim, Indianapolis, Indiana
Sequence (P00747 581-810 limits assumed): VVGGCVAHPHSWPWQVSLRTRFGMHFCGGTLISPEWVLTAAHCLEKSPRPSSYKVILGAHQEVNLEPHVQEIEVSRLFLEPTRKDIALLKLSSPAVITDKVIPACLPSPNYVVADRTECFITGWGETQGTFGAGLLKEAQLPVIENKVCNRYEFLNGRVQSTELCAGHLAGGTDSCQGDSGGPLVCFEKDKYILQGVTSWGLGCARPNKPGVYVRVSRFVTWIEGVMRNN
Sequence (P00747 97-580 partner limits assumed): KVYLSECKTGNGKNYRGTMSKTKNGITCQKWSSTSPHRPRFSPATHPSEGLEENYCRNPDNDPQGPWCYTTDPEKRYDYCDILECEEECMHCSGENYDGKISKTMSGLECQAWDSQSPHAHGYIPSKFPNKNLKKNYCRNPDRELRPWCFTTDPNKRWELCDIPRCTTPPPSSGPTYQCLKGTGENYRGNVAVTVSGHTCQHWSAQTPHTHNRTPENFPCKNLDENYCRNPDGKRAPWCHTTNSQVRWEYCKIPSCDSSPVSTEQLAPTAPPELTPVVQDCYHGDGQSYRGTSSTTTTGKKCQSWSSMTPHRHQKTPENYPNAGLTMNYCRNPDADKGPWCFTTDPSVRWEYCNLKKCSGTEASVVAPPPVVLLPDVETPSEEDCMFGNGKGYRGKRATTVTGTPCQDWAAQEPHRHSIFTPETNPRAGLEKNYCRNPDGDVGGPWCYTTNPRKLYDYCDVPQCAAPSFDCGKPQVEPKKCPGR
method_summary: biochemical
run_parameters: read-out: Kass Plasmin (converted)
Where a name gives a salt, the structure may show the parent alone.
The reader will find reported Kd values listed item by item below.

# count of solved cases: 3
Challenge: Provide measured Kd value, entry: N=C(N)NCCCNC(=O)[C@@H]1CCCN1C(=O)[C@H](N)Cc1ccccc1 [Example 7, D-Phe-Pro-NH(CH2)3NHC(NH)NH2·HCl]
Response given: 4550 µM

Challenge: Provide measured Kd value, entry: N=C(N)c1cccc(CNC(=O)[C@@H]2CCCN2C(=O)[C@H](N)Cc2ccccc2)c1 [Example 16, D-Phe-Pro-m-NHCH2C6H4C(NH)NH2·0.75HCl]
Response given: 588 µM

Challenge: Provide measured Kd value, entry: CCS(=O)(=O)N[C@H](Cc1ccccc1)C(=O)N1CCC[C@H]1C(=O)NCCc1ccc(C(=N)N)cc1 [Example 26]
Response given: 100 µM

Further cases:
Challenge: Provide measured Kd value, entry: N=C(N)c1ccc(CNC(=O)[C@@H]2C[C@@H]3CCCC[C@@H]3N2C(=O)[C@@H](CC2CCCCC2)NCC(=O)O)cc1 [Example 49]
Response given: 1.19 µM

Challenge: Provide measured Kd value, entry: NC[C@H]1CC[C@H](CNC(=O)[C@@H]2CCCN2C(=O)[C@H](N)Cc2ccccc2)CC1 [Example 12]
Response given: 1150 µM

Challenge: Provide measured Kd value, entry: CCS(=O)(=O)N[C@H](CC1CCCCC1)C(=O)N1CCC[C@H]1C(=O)NCCCCNC(=N)N [Example 2, EtSO2-D-Cha-Pro-Agm·HCl]
Response given: 22.2 µM

---

target_system: Trypsin (Bos taurus)
Sequence (P00760 24-246): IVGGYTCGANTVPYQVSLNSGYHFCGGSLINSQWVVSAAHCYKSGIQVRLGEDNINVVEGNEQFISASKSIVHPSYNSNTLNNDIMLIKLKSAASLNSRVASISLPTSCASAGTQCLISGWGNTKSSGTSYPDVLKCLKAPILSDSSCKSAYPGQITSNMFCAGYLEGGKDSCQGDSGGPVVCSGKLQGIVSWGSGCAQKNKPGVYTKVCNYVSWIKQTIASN
method_summary: biochemical
Design: species or system Bovine
run_parameters: read-out: Kass Trypsin (converted)
From the text: […]
Counter-ions that a name gives are not always drawn.
The reader will find reported Kd values listed item by item below.
Report only the number, with the unit nM understood.

# count of solved cases: 3
Challenge: Provide measured Kd value, entry: N=C(N)c1ccc(CCNC(=O)[C@@H]2CCCN2C(=O)[C@@H]2NCC[C@@H]3CCCC[C@@H]32)cc1 [Example 28, 1-Piq-Pro-p-NHCH2CH2-C6H4C(=NH)NH2·2HCl]
Response given: 9090

Challenge: Provide measured Kd value, entry: `N=C(N)N1CC=C(CNC(=O)[C@@H]2CCCN2C(=O)[C@@H](CC2CCCCC2)NCC(=O)O)CC1`
Response given: 102

Challenge: Provide measured Kd value, entry: NCc1ccc(CNC(=O)[C@@H]2CCCN2C(=O)[C@@H](CC2CCCCC2)NCC(=O)O)cc1 [Example 78, HO2CCH2-D-Cha-Pro-4-NHCH2C6H4CH2NH2·HCl]
Response given: 116

# next compound below
Challenge: Provide measured Kd value, entry: `Nc1cc(CCNC(=O)[C@@H]2CCCN2C(=O)[C@@H](CC2CCCCC2)NCC(=O)O)ccn1`
Response given: 2780

---

target_system: Human Thrombin (Homo sapiens, UniProt P00734)
method_summary: biochemical
run_parameters: read-out: Kass Human Thrombin (converted)
Counter-ions that a name gives are not always drawn.
property_label: Kd (nM)
Report only the number, with the unit nM understood.

# count of solved cases: 3
Challenge: Provide measured Kd value, entry: O=C(O)CN[C@H](CC1CCCCC1)C(=O)N1CCC[C@H]1C(=O)NCC1CCNCC1 [Example 53, HO2CCH2-D-Cha-Pro-4-NHCH2-piperidine·HCl]
Response given: 2780

Challenge: Provide measured Kd value, entry: Nc1ccc(CCNC(=O)[C@@H]2CCCN2C(=O)[C@@H](CC2CCCCC2)NCC(=O)O)cc1 [Example 63, HO2CCH2-D-Cha-Pro-4-NHCH2CH2C6H4NH2·HCl]
Response given: 3230

Challenge: Provide measured Kd value, entry: N=C(N)NCc1ccc(CNC(=O)[C@@H]2CCCN2C(=O)[C@H](N)Cc2ccccc2)cc1 [Example 9, D-Phe-Pro-p-NHCH2-C6H4CH2NHC(NH)NH2·2TFA]
Response given: 30300

Further cases:
Challenge: Provide measured Kd value, entry: `N=C(N)c1cc(F)c(CNC(=O)[C@@H]2CCCN2C(=O)[C@@H](CC2CCCCC2)NCC(=O)O)c(F)c1`
Response given: 0.435

Challenge: Provide measured Kd value, entry: `N=C(N)c1ccc(CNC(=O)[C@@H]2CCCN2C(=O)[C@@H](CCc2ccccc2)NCC(=O)O)cc1`
Response given: 33.3

Challenge: Provide measured Kd value, entry: `CS(=O)(=O)CC(=O)N[C@H](CC1CCCCC1)C(=O)N1CCC[C@H]1C(=O)NCc1ccc(C(=N)N)cc1`
Response given: 7.69

---

target_system: UniProt:P00742
Sequence (P00742 235-488 limits assumed): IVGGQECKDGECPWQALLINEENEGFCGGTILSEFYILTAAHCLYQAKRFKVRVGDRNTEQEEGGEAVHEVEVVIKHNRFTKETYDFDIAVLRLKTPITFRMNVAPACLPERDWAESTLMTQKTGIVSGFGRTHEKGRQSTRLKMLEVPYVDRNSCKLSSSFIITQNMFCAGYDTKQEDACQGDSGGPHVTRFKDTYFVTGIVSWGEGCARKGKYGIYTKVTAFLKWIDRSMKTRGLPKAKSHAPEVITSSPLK
Sequence (P00742 41-179 partner limits assumed): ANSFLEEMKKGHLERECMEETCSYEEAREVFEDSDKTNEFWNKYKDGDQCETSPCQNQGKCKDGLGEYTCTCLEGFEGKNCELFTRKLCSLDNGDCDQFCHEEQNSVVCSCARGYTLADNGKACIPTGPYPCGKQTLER
method_summary: biochemical
run_parameters: read-out: Kass Xa (converted)
Counter-ions that a name gives are not always drawn.
Assign classes using reported Kd values and the ranges bottom bin = under 2 µM, middle bin = from 2 µM up to 20 µM, top bin = 20 µM and over, please.

Challenge: Just checking, what class would you give `CCS(=O)(=O)N[C@H](Cc1ccccc1)C(=O)N1CCC[C@H]1C(=O)NCCc1cccc(C(=N)N)c1` here?
Response given: top bin

Challenge: Just checking, what class would you give `O=C(O)CN[C@H](CC1CCCCC1)C(=O)N1CCC[C@H]1C(=O)NCC1=CCNCC1` here?
Response given: top bin

Challenge: Just checking, what class would you give `N=C(N)c1ccc(CNC(=O)[C@@H]2CCCN2C(=O)[C@@H](CC2CCCCC2)NCCC(=O)O)cc1` here?
Response given: middle bin

Challenge: Just checking, what class would you give CCS(=O)(=O)N[C@H](CC1CCCCC1)C(=O)N1CCC[C@H]1C(=O)NCCCCNC(=N)N [Example 2, EtSO2-D-Cha-Pro-Agm·HCl] here?
Response given: top bin

Challenge: Just checking, what class would you give CCS(=O)(=O)N[C@@H](C(=O)N1[C@H](C(=O)NCc2ccc(C(=N)N)cc2)C[C@@H]2CCCC[C@@H]21)c1ccccc1 (relative stereo) [Example 44, HCl] here?
Response given: bottom bin

Further cases:
Challenge: Just checking, what class would you give `N=C(N)c1cccc(CCCNC(=O)[C@@H]2CCCN2C(=O)[C@@H]2NCC[C@@H]3CCCC[C@@H]32)c1` here?
Response given: top bin

Challenge: Just checking, what class would you give `CCS(=O)(=O)N[C@H](Cc1ccccc1)C(=O)N1CCC[C@H]1C(=O)NCc1ccc(C(=N)N)cc1` here?
Response given: middle bin

Challenge: Just checking, what class would you give `O=C(O)CN[C@H](CC1CCCCC1)C(=O)N1CCC[C@H]1C(=O)NCCC1=CCNCC1` here?
Response given: top bin

Challenge: Just checking, what class would you give `N=C(N)c1ccc(CNC(=O)[C@@H]2C[C@@H]3CCCC[C@@H]3N2C(=O)[C@@H](Cc2ccccc2)NCC(=O)O)cc1` here?
Response given: top bin

Challenge: Just checking, what class would you give N=C(N)c1ccc(CNC(=O)[C@@H]2C[C@@H]3CCCC[C@@H]3N2C(=O)[C@H]2CCCCN2)cc1 [Example 20, D-hPro-Ohi-p-NHCH2C6H4C(NH)NH2·3HCl] here?
Response given: middle bin

Challenge: Just checking, what class would you give `O=C(O)CN[C@H](CC1CCCCC1)C(=O)N1CCC[C@H]1C(=O)NCCCC1=CCNCC1` here?
Response given: top bin

Challenge: Just checking, what class would you give `CCS(=O)(=O)N[C@H](Cc1ccccc1)C(=O)N1CCC[C@H]1C(=O)NCCCc1cccc(C(=N)N)c1` here?
Response given: middle bin

Challenge: Just checking, what class would you give `N=C(N)c1ccc(CNC(=O)[C@@H]2C[C@@H]3CCCC[C@@H]3N2C(=O)[C@@H](CC2CCCCC2)NCC(=O)O)cc1` here?
Response given: bottom bin

Challenge: Just checking, what class would you give N=C(N)c1ccc(CNC(=O)[C@@H]2CCCN2C(=O)[C@H](N)CC2CCCCC2)cc1 [Example 51, D-Cha-Pro-p-NHCH2C6H4C(NH)NH2·2HCl] here?
Response given: bottom bin
